- System: Myc1 mouse G3 MB neurospheres
- experimental_protocol: Dose-response proliferation assay
- Format: cell-based
- condition_info: Mus musculus, 72 h, read-out: EC50 Myc1
*1 amine or outer side, *2 acyl side, *3 side chain or, on linkers, in order; H or OH if unused. Where a SMILES comes first, the peptide text is derived from it. Bridges are numbered along the chain shown (N, C = ends). Roman numbers before positions name the chains, in order. [ ]: non-standard residue; d: D form. Actinocin(9to1) = Cc1c2oc3c(C)ccc(C(=O)[*:1])c3nc-2c(C(=O)[*:2])c(N)c1=O; NMeV = CN[C@H](C(=O)O)C(C)C; Sar = CNCC(=O)O
measured_property: pEC50
# pEC50 is unitless: minus log10 of the molar concentration; print number only

Ask: Reported pEC50 for CC[C@H](C)C(=O)O[C@H]1C[C@@H](C)C=C2C=C[C@H](C)[C@H](CC[C@@H]3C[C@@H](O)CC(=O)O3)[C@H]21 : what is it?
Result: 5.40

Ask: For Cc1c2oc3c(C)ccc(C(=O)N[C@@H]4C(=O)N[C@H](C(C)C)C(=O)N5CCC[C@H]5C(=O)N(C)CC(=O)N(C)[C@@H](C(C)C)C(=O)O[C@@H]4C)c3nc-2c(C(=O)N[C@@H]2C(=O)N[C@H](C(C)C)C(=O)N3CCC[C@H]3C(=O)N(C)CC(=O)N(C)[C@@H](C(C)C)C(=O)O[C@@H]2C)c(N)c1=O [Dactinomycin] (I: T[dV]P[Sar][NMeV] / II: T[dV]P[Sar][NMeV]; ester I:1-I:C, II:1-II:C; linker I:N-II:N via Actinocin(9to1)) then?
Result: 9.05

Ask: Also COc1cc([C@@H]2c3cc4c(cc3[C@@H](O[C@@H]3O[C@@H]5CO[C@@H](C)O[C@H]5[C@H](O)[C@H]3O)[C@H]3COC(=O)[C@H]23)OCO4)cc(OC)c1O [Etoposide] , if possible.
Result: 6.62

Ask: Another: Nc1nc2[nH]cc(CCc3ccc(C(=O)N[C@@H](CCC(=O)O)C(=O)O)cc3)c2c(=O)[nH]1
Result: 7.46

Ask: O=c1[nH]cc(F)c(=O)[nH]1 , same question.
Result: 6.44

Ask: Moving on to Nc1nc(Cl)nc2c1ncn2[C@@H]1O[C@H](CO)[C@@H](O)[C@@H]1F
Result: 6.82

Ask: Subsequent entry: CC(C)c1nc(N(C)S(C)(=O)=O)nc(-c2ccc(F)cc2)c1/C=C/[C@@H](O)C[C@@H](O)CC(=O)O
Result: 5.59

Ask: Entry COCc1c(C(C)C)nc(C(C)C)c(/C=C/[C@@H](O)C[C@@H](O)CC(=O)O)c1-c1ccc(F)cc1 please
Result: 6.11

Ask: Please do the same for O=c1[nH]c(=O)n([C@H]2C[C@H](O)[C@@H](CO)O2)cc1C(F)(F)F as well.
Result: 7.42

Ask: Also need CCc1nc(N)nc(N)c1-c1ccc(Cl)cc1 , thanks.
Result: 5.31

Ask: For O=c1[nH]c(=O)n([C@H]2C[C@H](O)[C@@H](CO)O2)cc1F then?
Result: 8.80

Ask: # iterate: Nc1nc2nc[nH]c2c(=S)[nH]1
Result: 6.36

Ask: And for COc1cccc2c1C(=O)c1c(O)c3c(c(O)c1C2=O)C[C@@](O)(C(=O)CO)C[C@@H]3O[C@H]1C[C@H](N)[C@H](O)[C@H](C)O1 ?
Result: 7.55

---

- Test system: Myc1 mouse G3 MB neurospheres
- experimental_protocol: Dose-response proliferation assay
- Type: cell-based
- condition_info: Mus musculus, 72 h, read-out: EC50 Myc1
Provide the reported pEC50 of each item.
Keep it numeric: pEC50 is minus log10 of the concentration in mol/L.

Ask: Reported pEC50 for Nc1ccn([C@@H]2O[C@H](CO)[C@@H](O)[C@@H]2O)c(=O)n1 [Cytarabine] : what is it?
Result: 7.08

Ask: What do we get for Nc1nc(Cl)nc2c1ncn2[C@H]1C[C@H](O)[C@@H](CO)O1 [Cladrabine] ?
Result: 8.37

Ask: Next entry: Cc1nc2ccc(CN(C)c3ccc(C(=O)N[C@@H](CCC(=O)O)C(=O)O)s3)cc2c(=O)[nH]1 [Raltitrexed]
Result: 8.52

Ask: What would you report for CC[C@]1(O)C[C@H]2CN(CCc3c([nH]c4ccccc34)[C@@](C(=O)OC)(c3cc4c(cc3OC)N(C=O)[C@H]3[C@@](O)(C(=O)OC)[C@H](OC(C)=O)[C@]5(CC)C=CCN6CC[C@]43[C@@H]65)C2)C1 [Vincristine] ?
Result: 8.03

Ask: Now the same for Nc1ncn([C@H]2C[C@H](O)[C@@H](CO)O2)c(=O)n1 [Decitabine]
Result: 5.89

---

Kindly supply the reported pEC50 values for the records listed here.
- Tested on: Myc1 mouse G3 MB neurospheres
- experimental_protocol: Dose-response proliferation assay
- Type: cell-based
- condition_info: Mus musculus, 72 h, read-out: EC50 Myc1
The quantity pEC50 is defined as the negative base-10 logarithm of the molar concentration.

Ask: Fill blank: measured pEC50 of the compound CN(Cc1cnc2nc(N)nc(N)c2n1)c1ccc(C(=O)N[C@@H](CCC(=O)O)C(=O)O)cc1 [Methotrexate] is ____.
Result: 8.28

Ask: Same lookup for COc1cc(NCc2ccc3nc(N)nc(N)c3c2C)cc(OC)c1OC [Trimetrexate] , please.
Result: 7.46

Ask: // same read-out, input: CCC(C)(C)C(=O)O[C@H]1C[C@@H](C)C=C2C=C[C@H](C)[C@H](CC[C@@H]3C[C@@H](O)CC(=O)O3)[C@H]21
Result: 5.52

Ask: Now the same for COC(=O)Nc1nc2ccc(C(=O)c3cccs3)cc2[nH]1
Result: 6.96

Ask: // query: COc1cc([C@@H]2c3cc4c(cc3[C@H](O)[C@H]3COC(=O)[C@H]23)OCO4)cc(OC)c1OC
Result: 8.19

Ask: Now the same for O=C(O)C[C@H](O)C[C@H](O)/C=C/c1c(C2CC2)nc2ccccc2c1-c1ccc(F)cc1
Result: 5.46

Ask: Another compound: N=c1ccn2c(n1)O[C@H]1[C@H](O)[C@@H](CO)O[C@H]12
Result: 7.51

Ask: Request: CC[C@@]1(O)C(=O)OCc2c1cc1n(c2=O)Cc2cc3c(CN(C)C)c(O)ccc3nc2-1
Result: 7.12

Ask: Record: CC1(C)N=C(N)N=C(N)N1c1ccc(Cl)cc1
Result: 6.96

Ask: Item: CC[C@]1(O)C[C@@H]2CN(CCc3c([nH]c4ccccc34)[C@@](C(=O)OC)(c3cc4c(cc3OC)N(C)[C@H]3[C@@](O)(C(=O)OC)[C@H](OC(C)=O)[C@]5(CC)C=CCN6CC[C@]43[C@@H]65)C2)C1
Result: 7.92

Ask: Item: CC(C)C[C@H](NC(=O)[C@H](Cc1ccccc1)NC(=O)c1cnccn1)B(O)O
Result: 8.20

Ask: Can you handle COc1cc(NS(C)(=O)=O)ccc1Nc1c2ccccc2nc2ccccc12 next?
Result: 6.80

Ask: Also need COc1cccc2c1C(=O)c1c(O)c3c(c(O)c1C2=O)C[C@@](O)(C(C)=O)C[C@@H]3O[C@H]1C[C@H](N)[C@H](O)[C@H](C)O1 , thanks.
Result: 8.12

Ask: Then what about the compound CC(C)n1c(/C=C/C(O)CC(O)CC(=O)O)c(-c2ccc(F)cc2)c2ccccc21 (stereo not drawn) ?
Result: 5.35

Ask: What do you have for Nc1ccn([C@@H]2O[C@H](CO)[C@@H](O)C2(F)F)c(=O)n1 ?
Result: 8.68

---

For each entry below, report its EC50 value.
- Test system: Myc1 neurospheres
- experimental_protocol: In vitro wash-out experiments on Myc1
- Format: cell-based
- condition_info: Mus musculus, read-out: EC50 wash-out, 10 hr drug exposure, read 72 hr after
# number only, unit nM dropped from output

Ask: Given the entry Nc1ccn([C@@H]2O[C@H](CO)[C@@H](O)C2(F)F)c(=O)n1 , report its measured EC50.
Result: 13

Ask: How about Nc1nc2[nH]cc(CCc3ccc(C(=O)N[C@@H](CCC(=O)O)C(=O)O)cc3)c2c(=O)[nH]1 ?
Result: 500

---

Kindly supply the reported EC50 values for the records listed here.
- Test system: Myc1 neurospheres
- experimental_protocol: In vitro wash-out experiments on Myc1
- Assay type: cell-based
- condition_info: Mus musculus, read-out: EC50 wash-out, 24 hr drug exposure, read 72 hr after
Give your result in nM as a bare value.

Ask: // returns reported EC50 for input Nc1nc2[nH]cc(CCc3ccc(C(=O)N[C@@H](CCC(=O)O)C(=O)O)cc3)c2c(=O)[nH]1 [Pemetrexed]
Result: 180

Ask: Could you do the same for Nc1ccn([C@@H]2O[C@H](CO)[C@@H](O)C2(F)F)c(=O)n1 [Gemcitabine] , please?
Result: 3.8
